# experimental.target: Peptidyl-prolyl cis-trans isomerase NIMA-interacting 1 (Homo sapiens)
# protocol.summary: qHTS Validation Assay to Find Inhibitors of Pin1 (AID 504536)
# applied.conditions: Pin1 fluorescence polarization peptide binding assay; series mostly up to 57.5 µM
Records with an inconclusive call do not appear. Activity calls are given as the source filed them. The call rests on the fitted dose curve; in most records, active means well fitted inhibition curve with a large enough effect in the polarisation, with a control signal flat (not every such curve was filed as active); inconclusive means small, poorly fitted or top-dose-only effect, or effect the other way; inactive means flat fitted curve, though single readings scatter; the % refers to the polarisation.
metric.name: outcome

| compound | val |
| --- | --- |
| O=C1Cc2cc(CCN3CCN(c4nsc5ccccc45)CC3)c(Cl)cc2N1 | inactive |
| CCCNCC(O)COc1ccccc1C(=O)CCc1ccccc1 (stereo unspecified) | inactive |
| Clc1ccccc1C(c1ccccc1)(c1ccccc1)n1ccnc1 | inactive |
| Clc1ccc(C(c2ccccc2Cl)C(Cl)Cl)cc1 (stereo unspecified) | inactive |
| Cc1cc(C(C)(C)C)cc(C)c1CC1=NCCN1 | inactive |
| OCCN1CCN(CCCN2c3ccccc3Sc3ccc(C(F)(F)F)cc32)CC1 | inactive |
| COc1ccccc1OCC(O)CN1CCN(CC(=O)Nc2c(C)cccc2C)CC1 (stereo unspecified) | inactive |
| CN1C(C(=O)Nc2ccccn2)=C(O)c2ccccc2S1(=O)=O | inactive |
| CC1COc2c(N3CCN(C)CC3)c(F)cc3c(=O)c(C(=O)O)cn1c23 (stereo unspecified) | inactive |
| CCOC(=O)C(C)(C)Oc1ccc(Cl)cc1 | inactive |
| CC[N+](CC)(CC)CCOc1cccc(OCC[N+](CC)(CC)CC)c1OCC[N+](CC)(CC)CC | inactive |
